target_desc: T1, Foxp3-7 peptide/HLA-A*02:01 complex on the cell surface (human)
T1 construct: also called Foxp3-7/HLA-A2 complex
protocol_text: flow cytometry, phage on T2 + Foxp3-7 peptide; secondary only 133, unstained 103
Below, each entry is listed with its recorded Median:FITC-A.
The answer should be written as a number, with no unit following it.

• EXT017-21 scFv phage clone (scFv, also called phage clone #21) scFv: SYELTQPPSVSVAPGQTASMTCGGNNIGSKSVHWYQQKPSQAPVMVVHDDSERPSGIPERISGSKSGNTATLTISRVEAGDEADYYCQVWDSSSDHVIFGGGTKLTVLGSRGGGGSGGGGSGGGGSLEMAQVQLVQSGAEVKKPGASVKVSCKASGYTFTNYYIHWVRQAPGQGLEWMGIIRPSGGITNYAQKFQGRVSMTRDTSTSTVYMELSSLRSEDTAVYYCARSWMSDSYYDGWGQGTLVTVSSTSGQAGQHHHHHHGAYPYDVPDYAS = 1550
• Clone #23 (scFv, also called EXT017-23; EXT017-23 scFv phage clone) scFv (VL-linker-VH-His/HA tag): SYELTQPPSVSVAPGQTAWITCGGNNIGSKSVHWYQQKPGQAPILVVYDDSDRPSGIPERVSGSNSGNTATLTISRVEAGDEADYYCQVWDSSSDRWVFGGGTKLTVLGSRGGGGSGGGGSGGGGSLEMAQMQLVQSGAEVKKPGASVKVSCKASGYTFTNYGISWVRQAPGQGLEWMGWISPYNGNTNYAQKLQGRVTMTTDTSTSTAYMELRNLRSDDTAVYYCARYWDSGYAYDEWGQGTLVTVSSTSGQAGQHHHHHHGAYPYDVPDYAS = 982
• Clone #5 (scFv, also called EXT017-5; EXT017-5 scFv phage clone) scFv (VL-linker-VH-His/HA tag): QSALTQPPSASGSPGQSVTISCTGTSSDVGGYNYVSWYQQHPGKAPKLMIYEVSKRPSGVPDRFSGSKSGNTASLTVSGLQAEDEADYYCSSYAGSNTHVVFGGGTKLTVLGSRGGGGSGGGGSGGGGSLEMAEVQLVQSGAEVKKPGASVKISCKASRYTFTNYYIHWVRQAPGQGLEWMGIINPSGGSTTYPQNFQGRLTMTRDTSTSTVYMELSSLRSEDTAMYYCARGWSGYDPGDFWGQGTLVTVSSTSGQAGQHHHHHHGAYPYDVPDYAS = 2050

As a next step, examine the binder that follows.
query: Dear colleague, I am looking for the recorded Median:FITC-A of the following binder: EXT017-9 scFv phage clone (scFv, also called phage clone #9) scFv: QSALTQPASASGSPGQSVTISCTGTSSDVGGYNYVSWYQQHPGKAPKLMIYEVSKRPSGVPDRFSGSKSGNTASLTVSGLQAEDEADYYCSSYAGSNNVVFGGGTKLTVLGSRGGGGSGGGGSGGGGSLEMAEVQLVQSGAEVKKPGASVKISCKASRYTFTNYYIHWVRQAPGQGLEWMGIINPSGGSTTYPQNFQGRLTMTRDTSTSTVYMELSSLRSEDTAMYYCARGWSGYDPGDFWGQGTLVTVSSTSGQAGQHHHHHHGAYPYDVPDYAS
result: 1730
